assayedSystem: human mGluR2 (Homo sapiens, UniProt Q14416)
Construct: expressed in transfected cells; host or cells: HEK293 clonal line
Sequence (Q14416 19-872): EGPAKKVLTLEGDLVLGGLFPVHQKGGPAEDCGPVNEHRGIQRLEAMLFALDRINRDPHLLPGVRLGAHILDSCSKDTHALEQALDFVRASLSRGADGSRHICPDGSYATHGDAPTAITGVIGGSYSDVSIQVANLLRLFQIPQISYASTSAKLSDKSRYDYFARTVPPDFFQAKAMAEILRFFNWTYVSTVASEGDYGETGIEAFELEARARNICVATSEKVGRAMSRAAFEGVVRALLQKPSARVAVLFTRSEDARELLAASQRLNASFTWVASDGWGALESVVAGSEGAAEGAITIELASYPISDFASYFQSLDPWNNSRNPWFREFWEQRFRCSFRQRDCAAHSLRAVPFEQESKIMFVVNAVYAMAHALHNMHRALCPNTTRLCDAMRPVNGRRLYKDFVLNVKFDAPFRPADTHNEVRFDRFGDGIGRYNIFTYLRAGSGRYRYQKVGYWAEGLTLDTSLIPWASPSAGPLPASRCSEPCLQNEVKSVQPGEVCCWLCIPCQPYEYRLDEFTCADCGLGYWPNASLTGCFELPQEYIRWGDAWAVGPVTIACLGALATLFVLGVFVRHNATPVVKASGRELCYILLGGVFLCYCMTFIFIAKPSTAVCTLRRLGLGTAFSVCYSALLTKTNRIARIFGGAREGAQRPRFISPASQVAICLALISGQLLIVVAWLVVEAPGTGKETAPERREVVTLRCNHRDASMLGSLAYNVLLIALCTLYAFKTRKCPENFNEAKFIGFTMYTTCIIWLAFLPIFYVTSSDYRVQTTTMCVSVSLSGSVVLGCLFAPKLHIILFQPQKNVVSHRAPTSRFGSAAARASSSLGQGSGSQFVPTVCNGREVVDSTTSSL
assaySummary: mGluR2 cAMP assay
Assay type: cell-based
testParameters: clonally expressed human mGluR2 in HEK293; 1 μM forskolin, 1 μM LY-341495, 30 min; CISBIO cAMP kit; read-out: EC50 (nM), activity in mGluR2 cAMP assay
reportedProperty: EC50 (nM)
Kindly provide the numeric value in nM only, without the unit symbol.

The cases that follow already have their EC50 on record.
Fc1cc(F)cc(C2(COc3ccn4c(CC5CC5)nnc4c3C(F)(F)F)CC2)c1: 20
Fc1cc(F)cc(COc2ccn3c(CC4CC4)nnc3c2Cl)c1: 4.1

Query (molecule): [2H]C([2H])([2H])O[C@]1(c2ccc(F)cc2)CC[C@H](Oc2ccn3c(CC4CC4)nnc3c2C(F)(F)F)CC1 ; field requested: EC50 0.5

What do we get for CO[C@]1(c2ccc(F)cc2)CC[C@H](Oc2ccn3c(CC4CC4)nnc3c2C(F)(F)F)CC1 ? 0.3

* * *

assayedSystem: human mGluR2 (Homo sapiens, UniProt Q14416)
Construct: expressed in transfected cells; host or cells: HEK293 clonal line
assaySummary: mGluR2 cAMP assay
Assay type: cell-based
testParameters: EC50 (nM), activity in mGluR2 cAMP assay, clonally expressed human mGluR2 in HEK293; 1 μM forskolin, 1 μM LY-341495, 30 min; CISBIO cAMP kit
Some molecules, each annotated with its measured EC50.
Only the number, expressed in nM, is required.

Fc1ccc([C@H]2C[C@@H]2COc2ccn3c(CC4CC4)nnc3c2C(F)(F)F)cc1 (racemic) [Example 77]: 1.7

Please find the next molecule below.
Look up EC50 with human mGluR2 (Homo sapiens, UniProt Q14416) for this molecule: Fc1ccc([C@H]2C[C@H](Oc3ccn4c(CC5CC5)nnc4c3C(F)(F)F)C2)cc1 [Example 96] 0.4

* * *

EC50 by entry:
assayedSystem: human mGluR2 (Homo sapiens, UniProt Q14416)
Construct: expressed in transfected cells; host or cells: HEK293 clonal line
assaySummary: mGluR2 cAMP assay
Format: cell-based
testParameters: clonally expressed human mGluR2 in HEK293; 1 μM forskolin, 1 μM LY-341495, 30 min; CISBIO cAMP kit; read-out: EC50 (nM), activity in mGluR2 cAMP assay
Counter-ions that a name gives are not always drawn.
# value in nM; strip the unit string

Guide cases for EC50, answers given:
FC(F)(F)c1c(OC[C@H]2C[C@@H]2c2ccc(Cl)cc2)ccn2c(CC3CC3)nnc12 (racemic) [Example 31]: 1.3
Fc1cccc(Cl)c1CCOc1ccn2c(CC3CC3)nnc2c1C(F)(F)F: 0.4
Clc1c(OCCOc2ccccc2)ccn2c(CC3CC3)nnc12: 100
CC(Oc1ccn2c(CC3CC3)nnc2c1Cl)c1ccc(F)cc1 (stereo not drawn): 530
Clc1cc(COc2ccn3c(CC4CC4)nnc3c2Cl)nc(Cl)n1: 20

Reported EC50, compound CC(COc1ccn2c(CC3CC3)nnc2c1C(F)(F)F)c1c(F)cccc1Cl (racemic) : ____ 1

Note, next up: CC(C)(COc1ccn2c(CC3CC3)nnc2c1C(F)(F)F)c1ccc(Cl)cc1 5.5

Now the same for COc1c(F)ccc(F)c1[C@H]1C[C@@H]1COc1ccn2c(CC3CC3)nnc2c1C(F)(F)F (racemic) 0.8

Again, but for CO[C@]1(c2ccc(F)cc2)CC[C@H](Oc2ccn3c(C4CC4(F)F)nnc3c2C(F)(F)F)CC1 (single isomer, unassigned) [Example 88, TFA salt] 3.1

Likewise for Fc1ccc([C@H]2C[C@@H]2COc2ccn3c(CC(F)(F)F)nnc3c2C(F)(F)F)cc1 ? 1.6

Now give it for COC1(c2ccc(F)cc2)CCC(Oc2ccn3c([C@@H]4C[C@H]4F)nnc3c2C(F)(F)F)CC1 (stereo partly drawn) too. 83

Consider next the compound CO[C@@](C)(COc1ccn2c(CC3CC3)nnc2c1C(F)(F)F)c1ccc(F)cc1 (single isomer, unassigned) in the same way. 36

What would you report for CO[C@]1(c2ccc(F)cc2)CC[C@H](Oc2ccn3c(CC(F)(F)F)nnc3c2C(F)(F)F)CC1 ? 1

Do the same for CC(C#N)(COc1ccn2c(CC3CC3)nnc2c1C(F)(F)F)c1ccc(F)cc1 (racemic) [Example 12, TFA salt] please 130

Similarly, FC(F)(F)Oc1ccccc1[C@@H]1C[C@H]1COc1ccn2c(CC3CC3)nnc2c1C(F)(F)F (single isomer, unassigned) ? 1.9
